# TESTED_ON: UniProtKB V5BWE3
# PROTOCOL_DESCRIPTION: Dose-response studies for LAPTc inhibition by RapidFire-MS
# Format: biochemical
# CONDITION_INFO: Replicate data generation, individual replicates
Binary classification by Maximum Effect, with 90% as an inclusive lower bound for 1; all other cases are 0.

Determine whether measured Maximum Effect meets or exceeds 90% for `Cc1ccc2nc(-c3ccc(NS(=O)(=O)c4cc(C(=O)O)c(Cl)cc4Cl)cc3)sc2c1`
1

Determine whether measured Maximum Effect meets or exceeds 90% for CC1c2ccsc2CCN1C(=O)c1ccc(-n2cnnn2)cc1 (centres unmarked)
0

Determine whether measured Maximum Effect meets or exceeds 90% for `N#CC(=Cc1cn(Cc2ccc(C(=O)O)o2)c2ccccc12)c1nc2ccccc2[nH]1`
0

Determine whether measured Maximum Effect meets or exceeds 90% for Cn1ccnc1C(NS(=O)(=O)c1ccc(C#N)cc1)c1cccc(F)c1 (centres unmarked)
0

Determine whether measured Maximum Effect meets or exceeds 90% for `c1ccc(Cc2ccc(OCCn3ccnc3)cc2)cc1`
0

* * *

# TESTED_ON: LAPTc (Trypanosoma cruzi)
# Sequence (V5BWE3 entry or part of it): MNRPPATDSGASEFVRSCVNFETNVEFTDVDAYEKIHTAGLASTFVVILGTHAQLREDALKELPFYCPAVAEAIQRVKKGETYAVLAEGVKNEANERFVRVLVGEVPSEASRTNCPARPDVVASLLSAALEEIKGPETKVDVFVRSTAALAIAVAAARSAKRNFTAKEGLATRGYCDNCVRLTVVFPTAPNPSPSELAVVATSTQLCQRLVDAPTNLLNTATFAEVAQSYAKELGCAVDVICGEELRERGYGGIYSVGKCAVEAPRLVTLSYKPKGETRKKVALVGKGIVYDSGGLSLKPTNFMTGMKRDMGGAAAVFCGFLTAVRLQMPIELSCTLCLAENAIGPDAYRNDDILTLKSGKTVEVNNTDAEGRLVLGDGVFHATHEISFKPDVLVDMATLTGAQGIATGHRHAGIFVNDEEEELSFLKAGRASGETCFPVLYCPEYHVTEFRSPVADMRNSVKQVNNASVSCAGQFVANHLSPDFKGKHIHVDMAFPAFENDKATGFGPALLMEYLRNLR
METRIC_NAME: pKi
Keep in mind that pKi stands for -log10 of concentration in molar terms.

Form field - read-out: pKi; system: LAPTc (Trypanosoma cruzi); submitted item: `COc1ccc2oc(C(=O)Nc3nc(-c4ccccn4)cs3)c(C)c2c1`
6.57

* * *

# TESTED_ON: LAPTc (acidic M17 leucyl-aminopeptidase from T. cruzi) (Trypanosoma cruzi, UniProt V5BWE3)
# Sequence (V5BWE3 entry or part of it): as above
# PROTOCOL_DESCRIPTION: High-throughput single point screening for LAPTc inhibitors by RapidFire-MS
# Format: biochemical
# CONDITION_INFO: primary screen, 30 μM, single replicate; read-out: Percent Inhibition
METRIC_NAME: inhibition at 30 µM (%)
Lab book: enter the figure in %, no units written.

Quick one: inhibition at 30 µM of COc1ccc(CC(=O)Nc2nc(-c3ccccn3)cs2)c(OC)c1 [Compound 12] ?
42

Quick one: inhibition at 30 µM of O=C(NCC(=O)N1CCc2ccccc2C1)C1CCCCC1 [Compound 9] ?
49

Quick one: inhibition at 30 µM of c1ccc(Cc2ccc(OCCn3ccnc3)cc2)cc1 [Compound 13] ?
41

Quick one: inhibition at 30 µM of NC(=O)C1Cc2ccccc2CN1C(=O)Cc1cn2ccsc2n1 (centres unmarked) [Compound 28] ?
27

Quick one: inhibition at 30 µM of CCCS(=O)(=O)c1ccc(NS(=O)(=O)c2sc3ccc(Cl)cc3c2C)cc1 [Compound 24] ?
29

Quick one: inhibition at 30 µM of Cc1ccc2nc(-c3ccc(NS(=O)(=O)c4cc(C(=O)O)c(Cl)cc4Cl)cc3)sc2c1 [Compound 5] ?
58

Quick one: inhibition at 30 µM of Cn1ccnc1C(NS(=O)(=O)c1ccc(C#N)cc1)c1cccc(F)c1 (centres unmarked) [Compound 8] ?
49

Quick one: inhibition at 30 µM of O=C(CN1NS(=O)(=O)c2ccccc2C1=O)NCCc1ccccc1 [Compound 6] ?
56

Quick one: inhibition at 30 µM of CC1c2ccsc2CCN1C(=O)c1ccc(-n2cnnn2)cc1 (centres unmarked) [Compound 2] ?
62

Quick one: inhibition at 30 µM of N#CC(=Cc1cn(Cc2ccc(C(=O)O)o2)c2ccccc12)c1nc2ccccc2[nH]1 [Compound 15] ?
39

Quick one: inhibition at 30 µM of Nc1[nH]cnc1-c1nc(-c2ccccc2)cs1 [Compound 7] ?
56
